biological target: Trypsin (Homo sapiens, UniProt P07477+P07478+P35030); experiment: Inhibition of human trypsin; type: protein assay
For each entry below, report its Kic value.
Report the figure in µM without appending any unit label.

Problem: Given CC(C)C[C@@H]1NC(=O)[C@@H](C2CCCCC2)NC(=O)[C@H](c2ccccc2)C/C=C/Cc2[nH]c3ccc(Cl)cc3c2CNC1=O , state its recorded Kic.
Solution: 0.031

Problem: Given CC(C)C[C@@H]1NC(=O)[C@@H](C2CCCCC2)NS(=O)(=O)CCCCCc2[nH]c3ccc(Cl)cc3c2CNC1=O , state its recorded Kic.
Solution: 0.296

Problem: Given C=CCc1[nH]c2ccc(Cl)cc2c1CNC(=O)[C@H](CC(C)C)NC(=O)[C@H](NC(=O)[C@@H](CC=C)c1ccccc1)C1CCCCC1 , state its recorded Kic.
Solution: 0.02

Problem: Given C=CCCC(=O)N[C@@H](C(=O)N[C@@H](CC(C)C)C(=O)NCc1c(CC=C)[nH]c2ccc(Cl)cc12)C1CCCCC1 , state its recorded Kic.
Solution: 0.264

Problem: Given CC(C)C[C@@H]1NC(=O)[C@@H](C2CCCCC2)NC(=O)[C@H](c2ccccc2)CCCCc2[nH]c3ccc(Cl)cc3c2CNC1=O , state its recorded Kic.
Solution: 0.281

Problem: Given CC(C)C[C@@H]1NC(=O)[C@@H](C2CCCCC2)NS(=O)(=O)CC/C=C/Cc2[nH]c3ccc(Cl)cc3c2CNC1=O , state its recorded Kic.
Solution: 0.328

Problem: Given C=CCCS(=O)(=O)N[C@@H](C(=O)N[C@@H](CC(C)C)C(=O)NCc1c(CC=C)[nH]c2ccc(Cl)cc12)C1CCCCC1 , state its recorded Kic.
Solution: 0.142

Problem: Given CC(C)C[C@@H]1NC(=O)[C@@H](C2CCCCC2)NC(=O)CCCCCc2[nH]c3ccc(Cl)cc3c2CNC1=O , state its recorded Kic.
Solution: 1.22
